INHIBITION for assorted compounds
- System: Plasmodium berghei
- assaySummary: Screen against P. berghei liver stage (PbLuc), transformed with Luciferase, at 10uM
- Format: functional, HepG2
- runConditions: tested at 10 uM
In all, about 69,000 compounds went through this assay and about 8,600 (12%) showed an effect of 50% or more. The list comes from a sample in which strong results are over-represented; it also holds close analogues and randomly drawn compounds.
observable: INHIBITION (%)

[[record]]
compound = "CCC(Nc1nccc(C2CCCC2)n1)c1ncccc1C (stereo not drawn)"
units = "%"
measuredvalue = -24.8

[[record]]
compound = "Cc1nc(CNC2CCc3nc(C(C)C)nn3C2)oc1C (stereo not drawn)"
units = "%"
measuredvalue = 75.2

[[record]]
compound = "CCc1nc2n(n1)CC(NCc1nc3ccccc3o1)CC2 (stereo not drawn)"
units = "%"
measuredvalue = 11.9

[[record]]
compound = "CC(C)(CO)Nc1cc(-c2ccccc2)ncn1"
units = "%"
measuredvalue = 29.3

[[record]]
compound = "COCCOCC(=O)NCc1ccc(N(C)C)nc1"
units = "%"
measuredvalue = 26.1

[[record]]
compound = "CCc1cc(=O)[nH]c(-c2ccc(NC(CO)CC(C)C)nc2)n1 (stereo not drawn)"
units = "%"
measuredvalue = -27.4

[[record]]
compound = "Cc1nc2n(n1)CC(NCC(=O)NCCC1=CCCCC1)CC2 (stereo not drawn)"
units = "%"
measuredvalue = 40.4

[[record]]
compound = "CC(C)(CO)Nc1cc(-c2ccncc2)ncn1"
units = "%"
measuredvalue = 44.1

[[record]]
compound = "CCc1nnc(CNC2CCc3nc(C(C)C)nn3C2)o1 (stereo not drawn)"
units = "%"
measuredvalue = -19.4

[[record]]
compound = "CC[C@@H](CO)Nc1cc(-c2cn[nH]c2)ncn1"
units = "%"
measuredvalue = 50.1

[[record]]
compound = "CCc1nc2n(n1)CC(NCc1nc3ccccc3nc1C)CC2 (stereo not drawn)"
units = "%"
measuredvalue = 53.3

[[record]]
compound = "CC(C)c1nc2n(n1)CC(NCC(=O)NCCC1=CCCCC1)CC2 (stereo not drawn)"
units = "%"
measuredvalue = 51.1

[[record]]
compound = "CCc1nc2n(n1)CC(NCc1nc(C)ccc1O)CC2 (stereo not drawn)"
units = "%"
measuredvalue = -15


====

INHIBITION for assorted compounds
- System: Plasmodium berghei
- assaySummary: Screen against P. berghei liver stage (PbLuc), transformed with Luciferase, at 10uM
- Format: functional, HepG2
- runConditions: tested at 10 uM
In all, about 69,000 compounds went through this assay and about 8,600 (12%) showed an effect of 50% or more. This excerpt belongs to a sample that is enriched for strong results.
observable: INHIBITION (%)

[[record]]
compound = "Cc1cccn2c(=O)cc(CN3CCCC3Cn3cncn3)nc12 (stereo not given)"
units = "%"
measuredvalue = -30.7

[[record]]
compound = "Brc1cc2c(cc1CN1CCC(N3CCCCC3)CC1)OCCO2"
units = "%"
measuredvalue = 77.9

[[record]]
compound = "CNC(=O)Cc1nc(CNc2ccc(SC)c(F)c2)cs1"
units = "%"
measuredvalue = 80.7

[[record]]
compound = "Cn1ccnc1CN1CCCC1Cn1cccn1 (stereo not given)"
units = "%"
measuredvalue = -14

[[record]]
compound = "CN1CC2(CCN(C(=O)CCCOCc3ccccc3)C2)OC1=O (stereo not given)"
units = "%"
measuredvalue = 12.4

[[record]]
compound = "N#Cc1cc(F)ccc1CN1CCCC1Cn1cccn1 (stereo not given)"
units = "%"
measuredvalue = 66.7

[[record]]
compound = "CCOc1ccccc1CCn1cc2[nH]cccc-2c1=O"
units = "%"
measuredvalue = 41.5

[[record]]
compound = "Cc1ccccc1CC(C)NCc1c(C)nn(C)c1N1CCOCC1 (stereo not given)"
units = "%"
measuredvalue = 13.5

[[record]]
compound = "CN(Cc1nnc2n1CCC2)C(=O)Cc1ccc2c(c1)CCC2"
units = "%"
measuredvalue = 19.2

[[record]]
compound = "OC1CCN(Cc2cc3c(cc2Br)OCCO3)CC1"
units = "%"
measuredvalue = 28.3

[[record]]
compound = "CN(Cc1ccc2c(c1)OCO2)C(=O)Cn1cccnc1=O"
units = "%"
measuredvalue = 44.1

[[record]]
compound = "CCN(CC)S(=O)(=O)N(CC)Cc1ccc2c(c1)OCCO2"
units = "%"
measuredvalue = -19.9

[[record]]
compound = "N#Cc1ccc(C(=O)N2CC[C@H]3[C@@H]2CCC(=O)N3c2cccnc2)cc1"
units = "%"
measuredvalue = 23.9

[[record]]
compound = "CC(C)(C)c1nc(CN2CCCC2Cn2cncn2)no1 (stereo not given)"
units = "%"
measuredvalue = -38

[[record]]
compound = "CSc1ccc(NCc2csc(CS(C)(=O)=O)n2)cc1F"
units = "%"
measuredvalue = 17

[[record]]
compound = "CN(C)C1(CNC(=O)CC=Cc2ccc(F)cc2)CCOCC1"
units = "%"
measuredvalue = -18

[[record]]
compound = "CC(NC(=O)N1CCC[C@H]1CO)c1noc(-c2ccccc2)n1 (stereo not given in full)"
units = "%"
measuredvalue = 8.38

[[record]]
compound = "OCC1CCN(Cc2cc3c(cc2Br)OCCO3)CC1"
units = "%"
measuredvalue = 34.5

[[record]]
compound = "CCN1CCN(C(=O)NC(C)c2noc(-c3ccccc3)n2)CC1 (stereo not given)"
units = "%"
measuredvalue = 51.1

[[record]]
compound = "Cc1cnn(CC2CCCN2Cc2nccn2C)c1 (stereo not given)"
units = "%"
measuredvalue = 41.2

[[record]]
compound = "Cc1cc(C)c2[nH]c(C(=O)NCCN3CCNC3=O)c(C)c2c1"
units = "%"
measuredvalue = -16.3

[[record]]
compound = "Cc1cnn(CC2CCCN2Cc2noc(C(C)(C)C)n2)c1 (stereo not given)"
units = "%"
measuredvalue = -9.37

[[record]]
compound = "Cc1cnn(CC2CCCN2Cc2cc(=O)n3cccc(C)c3n2)c1 (stereo not given)"
units = "%"
measuredvalue = 42.9

[[record]]
compound = "CC(C)(C)c1nc(CN2CCCC2Cn2cccn2)no1 (stereo not given)"
units = "%"
measuredvalue = 60.5

[[record]]
compound = "CCn1cc(CN2CCCN(C(=O)c3ccoc3)CC2)cn1"
units = "%"
measuredvalue = 41.2


The values you see were collected from ChEMBL document CHEMBL4513216.
